B1: library; a variant is named by its letters at N, in order (parent)
chain: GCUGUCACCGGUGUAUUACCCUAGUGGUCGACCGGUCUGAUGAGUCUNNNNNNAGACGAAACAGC

- Variants of: B1
- TEST_METHOD_NOTES: normalized RNA/DNA level without ligand (relative to sTRSVctl = 100) (log10 (% of sTRSVctl)); ligand: hypoxanthine (xanthine aptamer); higher = less ribozyme self-cleavage, higher mRNA level
- CONDITION_LABEL: HEK293T, reporter: mCherry (pCS4076), ligand present: no
QUANTITY: normalized RNA/DNA level without ligand (log10)
// return a plain number; no unit text

Completed entries (count: 5):
{"MUTANT_ID": "ACGUUG", "EXPERIMENTAL_RESULT": 1.28}
{"MUTANT_ID": "AGCGAC", "EXPERIMENTAL_RESULT": 1.79}
{"MUTANT_ID": "CUAAGC", "EXPERIMENTAL_RESULT": 1.85}
{"MUTANT_ID": "GGCCGU", "EXPERIMENTAL_RESULT": 1.95}
{"MUTANT_ID": "CGGGCG", "EXPERIMENTAL_RESULT": 1.76}

// returns reported normalized RNA/DNA level without ligand (log10) for input CCCAUA
1.89

// returns reported normalized RNA/DNA level without ligand (log10) for input CUUUAG
1.81

// returns reported normalized RNA/DNA level without ligand (log10) for input ACAGCG
1.67

// returns reported normalized RNA/DNA level without ligand (log10) for input UCAUGA
1.5

// returns reported normalized RNA/DNA level without ligand (log10) for input AAUCCU
1.89

// returns reported normalized RNA/DNA level without ligand (log10) for input GACCGU
1.91
